Each entry below carries its reported self-cleavage.
B1: HDV Ribozyme (parent)
chain: GGCCGGCAUGGUCCCAGCCUCCUCGCUGGCGCCGGCUGGGCAACAUUCCGAGGGGACCGUCCCCUCGGUAAUGGCGAAUGGGACCCA

- Variants of: B1
- Assay method text: self-cleavage, relative activity (ratio to wild type); higher = more cleavage; co-transcriptional

{"columns": ["Mutation id", "self-cleavage"],
 "data": [
  ["U47G C75U", 0.305],
  ["C18U U65G", 0.554],
  ["C14U A77G", 1.31],
  ["G67C U69C", 1],
  ["A43U C44A", 1.16],
  ["U9C U47A", 1.11],
  ["G38U A51G", 0.32],
  ["C33G G82A", 0],
  ["C7U A16C", 0.196],
  ["A42U C44U", 0.674],
  ["C57A A83C", 0.684],
  ["G52A A56U", 1.1],
  ["G2U U20C", 0],
  ["A16U C19A", 0.285],
  ["G40C C86A", 0.363],
  ["U20A C32U", 0.0811],
  ["A8C U60G", 0.554],
  ["G28A G35A", 0.0608],
  ["A8U A51U", 0.787],
  ["G10A U60A", 0.739],
  ["A8C A56U", 1],
  ["G38C G55U", 0.193],
  ["U20G G76U", 0.388],
  ["U47C G53U", 0.966],
  ["C18G G38C", 0],
  ["C7A C36G", 0.0875],
  ["G10C G17A", 0.804],
  ["U12A G38C", 0.0489],
  ["C44G C61A", 0.724],
  ["C22U G39C", 0.115],
  ["A16C G53C", 0.475],
  ["C19A A87C", 0.148],
  ["G25A A78G", 0.0339],
  ["G25A G34C", 0.229],
  ["C41G A87C", 0.65],
  ["C49A A87G", 0.839],
  ["G10U C84A", 0.519],
  ["A42C A87U", 0.283],
  ["C15G A70G", 0.554],
  ["G31A G67A", 0.44],
  ["U27C G28C", 0.123],
  ["C18U G53A", 0.639],
  ["C41G C62A", 0.814],
  ["G17U G31C", 0.0361],
  ["C4U U12A", 0.111],
  ["G10C G76C", 0.861],
  ["G29U U46A", 0.0665],
  ["G1C G31A", 0.0302],
  ["G31U A56U", 0.489],
  ["C33U G73U", 0.391],
  ["C63U G67U", 1.02],
  ["G6C C14A", 0],
  ["U27C C36G", 0.185],
  ["G1A C58G", 0.0665],
  ["U27G G82U", 0.095],
  ["C30G U37G", 0],
  ["C61A U69A", 1.09],
  ["U46C A56C", 0.609],
  ["G35C A45U", 0.122],
  ["U9G C36U", 0.864],
  ["C66G A87C", 0.857],
  ["U9A G28A", 0.138],
  ["G5U G53A", 0.332],
  ["C18A U47G", 0],
  ["C7G C86U", 0.383],
  ["C85G", 0.948],
  ["U12G G38C", 0.178],
  ["G11C G81U", 0.225],
  ["C26G G31U", 0.48],
  ["G2U G81C", 0.0779],
  ["C13A G50C", 0.283],
  ["G10A C57G", 0.912],
  ["G59C A83U", 0.469],
  ["A16C U60A", 1.11],
  ["C15A A45U", 0.475],
  ["G35U G67C", 0.41],
  ["G39A A70G", 0.483],
  ["U9G C36A", 0.401],
  ["A16C U37C", 0.831],
  ["U65G G67U", 0.569],
  ["G11A G74C", 0.0723],
  ["C15A C36U", 0.253]
]}
